Test system: Mast/stem cell growth factor receptor Kit (Homo sapiens), P10721 [V559D,V654A]
Sequence (P10721 whole entry V559D/V654A): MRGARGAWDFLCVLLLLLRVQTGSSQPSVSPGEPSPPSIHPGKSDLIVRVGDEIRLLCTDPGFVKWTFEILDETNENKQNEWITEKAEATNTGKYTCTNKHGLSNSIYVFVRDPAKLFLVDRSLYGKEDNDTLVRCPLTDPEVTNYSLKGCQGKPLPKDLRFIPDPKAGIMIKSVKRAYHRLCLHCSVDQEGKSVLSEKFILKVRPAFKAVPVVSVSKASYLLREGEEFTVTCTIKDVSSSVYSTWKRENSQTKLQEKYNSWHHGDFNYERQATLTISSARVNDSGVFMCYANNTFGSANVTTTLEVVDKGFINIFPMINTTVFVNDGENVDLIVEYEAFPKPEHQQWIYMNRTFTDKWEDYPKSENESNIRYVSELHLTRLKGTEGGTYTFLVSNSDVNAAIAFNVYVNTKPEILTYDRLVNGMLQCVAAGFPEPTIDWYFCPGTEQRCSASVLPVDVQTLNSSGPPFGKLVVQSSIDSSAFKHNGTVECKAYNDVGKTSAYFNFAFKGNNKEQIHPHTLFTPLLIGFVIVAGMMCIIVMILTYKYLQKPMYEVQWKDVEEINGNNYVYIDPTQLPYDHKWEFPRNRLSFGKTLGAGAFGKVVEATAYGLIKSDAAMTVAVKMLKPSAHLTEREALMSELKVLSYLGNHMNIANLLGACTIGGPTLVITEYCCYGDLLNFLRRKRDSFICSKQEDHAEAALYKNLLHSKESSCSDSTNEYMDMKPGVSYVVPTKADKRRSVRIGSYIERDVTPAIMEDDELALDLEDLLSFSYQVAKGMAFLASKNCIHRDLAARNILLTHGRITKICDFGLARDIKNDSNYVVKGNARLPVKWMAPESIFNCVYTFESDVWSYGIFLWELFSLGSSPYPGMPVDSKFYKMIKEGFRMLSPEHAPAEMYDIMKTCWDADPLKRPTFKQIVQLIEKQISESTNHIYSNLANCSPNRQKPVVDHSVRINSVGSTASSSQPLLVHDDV
Experiment: Competitive binding affinity to KIT V559D/V654A double mutant (unknown origin) at 10 uM in presence of ATP relative to control
Measured endpoint: inhibition (%)

Smiles entry: O[C@H]1CC[C@H](Nc2nccc(-n3ccc4ccccc43)n2)CC1
inhibition [%]: 64

Smiles entry: O[C@H]1CC[C@H](Nc2nccc(-n3ncc4ccccc43)n2)CC1
inhibition [%]: 87

Smiles entry: O[C@H]1CC[C@H](Nc2nccc(-c3n[nH]c4ccccc34)n2)CC1
inhibition [%]: 82

Smiles entry: O[C@H]1CC[C@H](Nc2nccc(-n3nnc4ccccc43)n2)CC1
inhibition [%]: 67

====

Assay target: Calcium/calmodulin-dependent protein kinase kinase 2 (Homo sapiens)
Experiment: Competitive binding affinity to CAMKK2 (unknown origin) at 10 uM in presence of ATP relative to control
Measured endpoint: inhibition (%)

Smiles entry: O[C@H]1CC[C@H](Nc2nccc(-c3n[nH]c4ccccc34)n2)CC1
Recorded result: 84
--
Smiles entry: O[C@H]1CC[C@H](Nc2nccc(-n3ncc4ccccc43)n2)CC1
Recorded result: 65
--
Smiles entry: N[C@H]1CC[C@H](Nc2nccc(-n3nnc4ccccc43)n2)CC1
Recorded result: 86
--
Smiles entry: O=C([C@H]1CC[C@H](Nc2nccc(-n3nnc4ccccc43)n2)CC1)N1CCOCC1
Recorded result: 75
--
Smiles entry: O[C@H]1CC[C@H](Nc2nccc(-n3nnc4ccccc43)n2)CC1
Recorded result: 72

====

Assay target: Insulin receptor (Homo sapiens) (UniProt P06213)
Experiment: Competitive binding affinity to INSR (unknown origin) at 10 uM in presence of ATP relative to control
Measured endpoint: inhibition

Smiles entry: O=C([C@H]1CC[C@H](Nc2nccc(-n3nnc4ccccc43)n2)CC1)N1CCOCC1
Measured endpoint: inhibition
Recorded result: < 50%

Tell me the measured inhibition of O[C@H]1CC[C@H](Nc2nccc(-n3nnc4ccccc43)n2)CC1 , please.
< 50%

Tell me the measured inhibition of O[C@H]1CC[C@H](Nc2nccc(-c3n[nH]c4ccccc34)n2)CC1 , please.
98%

Tell me the measured inhibition of N[C@H]1CC[C@H](Nc2nccc(-n3nnc4ccccc43)n2)CC1 , please.
< 50%

Tell me the measured inhibition of O[C@H]1CC[C@H](Nc2nccc(-n3ncc4ccccc43)n2)CC1 , please.
< 50%

Tell me the measured inhibition of O[C@H]1CC[C@H](Nc2nccc(-n3ccc4ccccc43)n2)CC1 , please.
< 50%

====

Assay target: Mitogen-activated protein kinase 10 (Homo sapiens, UniProt P53779)
Sequence (P53779 whole entry): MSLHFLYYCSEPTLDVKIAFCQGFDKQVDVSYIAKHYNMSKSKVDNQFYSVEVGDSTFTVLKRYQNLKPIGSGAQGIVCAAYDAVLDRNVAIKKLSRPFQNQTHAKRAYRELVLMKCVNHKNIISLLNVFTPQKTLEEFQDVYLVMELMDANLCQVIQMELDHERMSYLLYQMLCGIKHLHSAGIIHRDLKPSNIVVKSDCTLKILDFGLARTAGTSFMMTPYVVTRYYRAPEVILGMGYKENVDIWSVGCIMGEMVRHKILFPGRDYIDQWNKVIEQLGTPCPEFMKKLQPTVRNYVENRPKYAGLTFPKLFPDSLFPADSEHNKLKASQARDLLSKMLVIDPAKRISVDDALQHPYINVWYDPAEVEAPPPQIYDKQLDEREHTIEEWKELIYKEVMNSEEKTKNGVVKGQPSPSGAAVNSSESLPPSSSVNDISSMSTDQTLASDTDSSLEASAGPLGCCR
Experiment: Binding affinity to JNK3 (unknown origin)
Measured endpoint: Kd (nM)
Only the number, expressed in nM, is required.

Tell me the measured Kd of CS(=O)(=O)CCCOc1cccc2c1ccn2-c1ccnc(N[C@H]2CC[C@H](C(=O)N3CCC(O)CC3)CC2)n1 , please.
1.8

====

System: Receptor-type tyrosine-protein kinase FLT3 (Homo sapiens), P36888 [UNDEFINED MUTATION]
Sequence (P36888 whole entry, looked up, change not shown): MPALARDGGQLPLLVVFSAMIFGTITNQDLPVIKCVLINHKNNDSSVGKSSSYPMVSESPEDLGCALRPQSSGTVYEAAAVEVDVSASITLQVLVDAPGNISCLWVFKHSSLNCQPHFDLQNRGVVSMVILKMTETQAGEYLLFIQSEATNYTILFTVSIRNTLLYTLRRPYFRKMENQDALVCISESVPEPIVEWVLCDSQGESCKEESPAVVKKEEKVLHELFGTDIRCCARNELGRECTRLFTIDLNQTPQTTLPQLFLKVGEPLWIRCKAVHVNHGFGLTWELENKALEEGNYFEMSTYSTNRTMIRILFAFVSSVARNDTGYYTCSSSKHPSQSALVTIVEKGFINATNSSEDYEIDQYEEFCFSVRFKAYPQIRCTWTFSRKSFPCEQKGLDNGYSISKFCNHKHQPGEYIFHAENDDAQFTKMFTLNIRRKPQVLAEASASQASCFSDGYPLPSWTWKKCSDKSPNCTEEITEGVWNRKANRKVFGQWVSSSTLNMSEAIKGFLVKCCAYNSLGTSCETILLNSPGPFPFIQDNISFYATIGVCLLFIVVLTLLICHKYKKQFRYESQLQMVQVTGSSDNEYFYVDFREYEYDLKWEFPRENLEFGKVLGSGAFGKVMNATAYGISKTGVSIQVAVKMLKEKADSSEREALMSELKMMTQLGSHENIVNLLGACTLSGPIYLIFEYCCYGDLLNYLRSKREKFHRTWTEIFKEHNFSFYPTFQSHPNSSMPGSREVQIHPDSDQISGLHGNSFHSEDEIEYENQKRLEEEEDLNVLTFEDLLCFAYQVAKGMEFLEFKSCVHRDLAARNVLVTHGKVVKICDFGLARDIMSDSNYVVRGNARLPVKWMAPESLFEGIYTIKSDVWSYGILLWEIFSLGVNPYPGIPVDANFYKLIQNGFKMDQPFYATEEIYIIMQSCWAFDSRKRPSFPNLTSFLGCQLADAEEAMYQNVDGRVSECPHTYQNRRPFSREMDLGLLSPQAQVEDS
Experiment: Competitive binding affinity to FLT3 ITD mutant (unknown origin) at 10 uM in presence of ATP relative to control
Measured endpoint: inhibition (%)

Smiles entry: O[C@H]1CC[C@H](Nc2nccc(-n3nnc4ccccc43)n2)CC1
Assay target: Receptor-type tyrosine-protein kinase FLT3 (Homo sapiens), P36888 [UNDEFINED MUTATION]
Measured endpoint: inhibition
Recorded result: 98

Smiles entry: O[C@H]1CC[C@H](Nc2nccc(-n3ncc4ccccc43)n2)CC1
Assay target: Receptor-type tyrosine-protein kinase FLT3 (Homo sapiens), P36888 [UNDEFINED MUTATION]
Measured endpoint: inhibition
Recorded result: 100

Smiles entry: O[C@H]1CC[C@H](Nc2nccc(-c3n[nH]c4ccccc34)n2)CC1
Assay target: Receptor-type tyrosine-protein kinase FLT3 (Homo sapiens), P36888 [UNDEFINED MUTATION]
Measured endpoint: inhibition
Recorded result: 100

====

Assay target: Serine/threonine-protein kinase PLK3 (Homo sapiens) (UniProt Q9H4B4)
Sequence (Q9H4B4 whole entry, looked up): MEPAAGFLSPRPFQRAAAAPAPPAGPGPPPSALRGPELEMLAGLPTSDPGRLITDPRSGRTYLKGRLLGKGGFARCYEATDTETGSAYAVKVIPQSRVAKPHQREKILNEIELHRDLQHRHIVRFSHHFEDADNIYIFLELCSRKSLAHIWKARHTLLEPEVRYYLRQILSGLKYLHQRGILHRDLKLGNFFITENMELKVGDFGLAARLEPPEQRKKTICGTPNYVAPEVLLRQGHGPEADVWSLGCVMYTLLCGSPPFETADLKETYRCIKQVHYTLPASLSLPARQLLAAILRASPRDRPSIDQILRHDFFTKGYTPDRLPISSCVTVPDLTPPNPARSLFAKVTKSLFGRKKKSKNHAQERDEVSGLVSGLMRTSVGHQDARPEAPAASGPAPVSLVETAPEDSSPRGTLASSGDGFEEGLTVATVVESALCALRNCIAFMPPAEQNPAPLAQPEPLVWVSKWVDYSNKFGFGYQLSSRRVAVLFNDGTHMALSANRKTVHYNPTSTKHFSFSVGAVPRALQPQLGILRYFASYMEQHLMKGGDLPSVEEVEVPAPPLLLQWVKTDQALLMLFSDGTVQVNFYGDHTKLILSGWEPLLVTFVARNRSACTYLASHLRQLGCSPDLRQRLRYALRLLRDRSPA
Experiment: Competitive binding affinity to PLK3 (unknown origin) at 10 uM in presence of ATP relative to control
Measured endpoint: inhibition

Smiles entry: O[C@H]1CC[C@H](Nc2nccc(-n3ccc4ccccc43)n2)CC1
inhibition: < 50%
--
Smiles entry: O[C@H]1CC[C@H](Nc2nccc(-n3nnc4ccccc43)n2)CC1
inhibition: 68%
--
Smiles entry: O[C@H]1CC[C@H](Nc2nccc(-c3n[nH]c4ccccc34)n2)CC1
inhibition: < 50%

For the next question, use this compound.
Tell me the measured inhibition of O[C@H]1CC[C@H](Nc2nccc(-n3ncc4ccccc43)n2)CC1 , please.
< 50%

====

Assay target: Fibroblast growth factor receptor 1 (Homo sapiens) (UniProt P11362)
Sequence (P11362 22-822 limits assumed): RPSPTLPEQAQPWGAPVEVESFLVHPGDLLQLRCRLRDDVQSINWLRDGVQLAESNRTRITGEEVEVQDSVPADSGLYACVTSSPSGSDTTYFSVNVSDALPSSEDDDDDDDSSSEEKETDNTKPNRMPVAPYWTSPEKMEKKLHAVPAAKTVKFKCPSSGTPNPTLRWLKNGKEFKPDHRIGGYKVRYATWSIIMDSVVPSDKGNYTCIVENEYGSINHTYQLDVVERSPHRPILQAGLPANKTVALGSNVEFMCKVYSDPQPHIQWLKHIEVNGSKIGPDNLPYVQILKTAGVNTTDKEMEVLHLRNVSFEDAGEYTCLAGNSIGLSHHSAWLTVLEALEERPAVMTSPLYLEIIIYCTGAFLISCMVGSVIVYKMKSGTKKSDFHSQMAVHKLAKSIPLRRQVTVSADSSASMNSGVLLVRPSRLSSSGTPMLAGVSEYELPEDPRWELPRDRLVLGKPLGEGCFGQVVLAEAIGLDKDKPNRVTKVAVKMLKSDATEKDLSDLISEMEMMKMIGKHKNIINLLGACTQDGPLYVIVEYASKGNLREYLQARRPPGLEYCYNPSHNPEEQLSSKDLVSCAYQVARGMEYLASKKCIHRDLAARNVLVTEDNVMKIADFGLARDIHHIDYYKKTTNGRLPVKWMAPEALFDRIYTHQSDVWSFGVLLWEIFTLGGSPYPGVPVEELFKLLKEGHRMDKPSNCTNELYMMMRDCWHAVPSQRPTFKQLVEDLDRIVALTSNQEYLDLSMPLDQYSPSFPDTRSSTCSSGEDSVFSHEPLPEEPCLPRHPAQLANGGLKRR
Experiment: Competitive binding affinity to FGFR1 (unknown origin) at 10 uM in presence of ATP relative to control
Measured endpoint: inhibition

Smiles entry: O[C@H]1CC[C@H](Nc2nccc(-n3ncc4ccccc43)n2)CC1
inhibition: < 50%
//
Smiles entry: O[C@H]1CC[C@H](Nc2nccc(-n3nnc4ccccc43)n2)CC1
inhibition: < 50%
//
Smiles entry: N[C@H]1CC[C@H](Nc2nccc(-n3nnc4ccccc43)n2)CC1
inhibition: < 50%

Tell me the measured inhibition of O=C([C@H]1CC[C@H](Nc2nccc(-n3nnc4ccccc43)n2)CC1)N1CCOCC1 , please.
< 50%

Tell me the measured inhibition of O[C@H]1CC[C@H](Nc2nccc(-n3ccc4ccccc43)n2)CC1 , please.
< 50%

Tell me the measured inhibition of O[C@H]1CC[C@H](Nc2nccc(-c3n[nH]c4ccccc34)n2)CC1 , please.
80%

====

Assay target: Non-receptor tyrosine-protein kinase TYK2 (Homo sapiens)
Experiment: Competitive binding affinity to TYK2 kinase domain 2 (unknown origin) at 10 uM in presence of ATP relative to control
Measured endpoint: inhibition

Below, each entry is followed by its recorded inhibition result.
Smiles entry: O[C@H]1CC[C@H](Nc2nccc(-n3ncc4ccccc43)n2)CC1
inhibition: < 50%

Smiles entry: O[C@H]1CC[C@H](Nc2nccc(-n3ccc4ccccc43)n2)CC1
inhibition: < 50%

Smiles entry: O[C@H]1CC[C@H](Nc2nccc(-c3n[nH]c4ccccc34)n2)CC1
inhibition: 86%

Tell me the measured inhibition of O[C@H]1CC[C@H](Nc2nccc(-n3nnc4ccccc43)n2)CC1 , please.
< 50%

====

Assay target: Mitogen-activated protein kinase 10 (Homo sapiens)
Experiment: Competitive binding affinity to JNK3 (unknown origin) at 10 uM in presence of ATP relative to control
Measured endpoint: inhibition (%)

Smiles entry: O[C@H]1CC[C@H](Nc2nccc(-n3ccc4ccccc43)n2)CC1
Assay target: Mitogen-activated protein kinase 10 (Homo sapiens)
Unit name: %
inhibition: 100
--
Smiles entry: O=C([C@H]1CC[C@H](Nc2nccc(-n3nnc4ccccc43)n2)CC1)N1CCOCC1
Assay target: Mitogen-activated protein kinase 10 (Homo sapiens)
Unit name: %
inhibition: 100
--
Smiles entry: O[C@H]1CC[C@H](Nc2nccc(-c3n[nH]c4ccccc34)n2)CC1
Assay target: Mitogen-activated protein kinase 10 (Homo sapiens)
Unit name: %
inhibition: 100
--
Smiles entry: N[C@H]1CC[C@H](Nc2nccc(-n3nnc4ccccc43)n2)CC1
Assay target: Mitogen-activated protein kinase 10 (Homo sapiens)
Unit name: %
inhibition: 100
--
Smiles entry: O[C@H]1CC[C@H](Nc2nccc(-n3ncc4ccccc43)n2)CC1
Assay target: Mitogen-activated protein kinase 10 (Homo sapiens)
Unit name: %
inhibition: 100
--
Smiles entry: O[C@H]1CC[C@H](Nc2nccc(-n3nnc4ccccc43)n2)CC1
Assay target: Mitogen-activated protein kinase 10 (Homo sapiens)
Unit name: %
inhibition: 100

====

Assay target: Serine/threonine-protein kinase N2 (Homo sapiens) (UniProt Q16513)
Sequence (Q16513 whole entry, looked up): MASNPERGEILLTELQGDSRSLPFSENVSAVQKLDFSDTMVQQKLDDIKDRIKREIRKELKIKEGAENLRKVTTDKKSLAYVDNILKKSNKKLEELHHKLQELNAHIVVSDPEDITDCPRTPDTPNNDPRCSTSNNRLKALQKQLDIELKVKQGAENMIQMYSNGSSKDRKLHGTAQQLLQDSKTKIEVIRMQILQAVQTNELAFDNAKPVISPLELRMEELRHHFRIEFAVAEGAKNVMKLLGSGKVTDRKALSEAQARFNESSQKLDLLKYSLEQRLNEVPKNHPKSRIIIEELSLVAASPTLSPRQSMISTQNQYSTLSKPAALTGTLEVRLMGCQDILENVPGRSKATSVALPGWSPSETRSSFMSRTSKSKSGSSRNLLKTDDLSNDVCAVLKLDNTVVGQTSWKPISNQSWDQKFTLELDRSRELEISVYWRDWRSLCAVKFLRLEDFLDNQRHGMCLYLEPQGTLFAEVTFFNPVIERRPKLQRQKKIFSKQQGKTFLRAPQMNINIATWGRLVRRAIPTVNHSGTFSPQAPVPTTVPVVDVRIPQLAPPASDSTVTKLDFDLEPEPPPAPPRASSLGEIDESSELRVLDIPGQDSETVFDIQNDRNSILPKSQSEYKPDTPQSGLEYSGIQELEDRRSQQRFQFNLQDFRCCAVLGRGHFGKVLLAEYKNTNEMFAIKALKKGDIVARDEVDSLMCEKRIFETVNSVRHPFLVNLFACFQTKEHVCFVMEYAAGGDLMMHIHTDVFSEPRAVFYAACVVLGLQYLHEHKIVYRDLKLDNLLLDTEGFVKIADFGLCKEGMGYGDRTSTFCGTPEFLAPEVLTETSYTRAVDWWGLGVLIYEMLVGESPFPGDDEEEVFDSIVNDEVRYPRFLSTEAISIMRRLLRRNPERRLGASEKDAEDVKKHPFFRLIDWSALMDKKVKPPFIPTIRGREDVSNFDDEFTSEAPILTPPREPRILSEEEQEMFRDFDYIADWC
Experiment: Competitive binding affinity to PKN2 (unknown origin) at 10 uM in presence of ATP relative to control
Measured endpoint: inhibition (%)

Smiles entry: O[C@H]1CC[C@H](Nc2nccc(-n3nnc4ccccc43)n2)CC1
inhibition [%]: 69
//
Smiles entry: O[C@H]1CC[C@H](Nc2nccc(-c3n[nH]c4ccccc34)n2)CC1
inhibition [%]: 67

====

Assay target: Glycogen synthase kinase-3 beta (Homo sapiens)
Experiment: Competitive binding affinity to GSK3beta (unknown origin) at 10 uM in presence of ATP relative to control
Measured endpoint: inhibition (%)

Smiles entry: O[C@H]1CC[C@H](Nc2nccc(-n3ncc4ccccc43)n2)CC1
Unit name: %
inhibition: 82

Smiles entry: O[C@H]1CC[C@H](Nc2nccc(-n3nnc4ccccc43)n2)CC1
Unit name: %
inhibition: 100

====

Assay target: SRSF protein kinase 1 (Homo sapiens)
Experiment: Competitive binding affinity to SRPK1 (unknown origin) at 10 uM in presence of ATP relative to control
Measured endpoint: inhibition

Below, each entry is followed by its recorded inhibition result.
Smiles entry: O[C@H]1CC[C@H](Nc2nccc(-n3nnc4ccccc43)n2)CC1
Recorded result: < 50%
//
Smiles entry: O[C@H]1CC[C@H](Nc2nccc(-n3ncc4ccccc43)n2)CC1
Recorded result: < 50%

Tell me the measured inhibition of O[C@H]1CC[C@H](Nc2nccc(-c3n[nH]c4ccccc34)n2)CC1 , please.
100%

Tell me the measured inhibition of O[C@H]1CC[C@H](Nc2nccc(-n3ccc4ccccc43)n2)CC1 , please.
< 50%
